Data provenance is the supplement of paper PMC11061612.

# maps each entry to its combination Emax
- System: MOG-G-UVW (Low Grade Glioma)
- assay info: combination Emax (second highest fraction inhibited in the dose matrix, 72 h); higher = more inhibition; extreme values may be limits of the assay
assay endpoint: combination Emax

- molecule: "COc1nnc2ccc(N3CCC(c4ccc(OCCN5CCN(C)C(=O)[C@H]5C)cc4)CC3)nn12 [AZD5153] + CC1(C)CCC(CN2CCN(c3ccc(C(=O)NS(=O)(=O)c4ccc(NCC5CCOCC5)c([N+](=O)[O-])c4)c(Oc4cnc5[nH]ccc5c4)c3)CC2)=C(c2ccc(Cl)cc2)C1 [Venetoclax] (first compound max 1 µM, 7x7, partner max 1 µM)"
  assay result: 0.715
- molecule: "NC1(C(=O)N[C@@H](CCO)c2ccc(Cl)cc2)CCN(c2ncnc3[nH]ccc23)CC1 [Capivasertib] + CC(C)n1c(=O)n(C)c2cnc3cc(F)c(-c4ccc(OCCCN5CCCCC5)nc4)cc3c21 [AZD1390] (first compound max 10 µM, 7x7, partner max 0.3 µM)"
  assay result: 0.576
- molecule: "Cc1c2c(nn1C)CSCc1cc(n(C)n1)CSc1cc(c3ccccc3c1)OCCCc1c(C(=O)O)n(C)c3c-2c(Cl)ccc13 [AZD5991] + C[C@@H]1COCCN1C2=NC(=NC(=C2)C3(CC3)[S@](=N)(=O)C)C4=C5C=CNC5=NC=C4 [AZD6738] (first compound max 1 µM, 7x7, partner max 10 µM)"
  assay result: 0.756
- molecule: "CCN(CCO)CCCOc1ccc2c(Nc3cc(CC(=O)Nc4cccc(F)c4)[nH]n3)ncnc2c1 [AZD2811] + C=CCn1c(=O)c2cnc(Nc3ccc(N4CCN(C)CC4)cc3)nc2n1-c1cccc(C(C)(C)O)n1 [AZD1775] (first compound max 1 µM, partner max 1 µM)"
  assay result: 0.771
- molecule: "C[C@@H]1COCCN1c1cc(C2([S@](C)(=N)=O)CC2)nc(-c2ccnc3[nH]ccc23)n1 [AZD6738] + O=C(c1cc(Cc2n[nH]c(=O)c3ccccc23)ccc1F)N1CCN(C(=O)C2CC2)CC1 [Olaparib] (first compound max 10 µM, 7x7, partner max 10 µM)"
  assay result: 0.847
- molecule: "Cc1cc2ncnn2cc1Nc1ncc2c(n1)n(C1CCOCC1)c(=O)n2C [AZD7648] + C[C@@H]1COCCN1C2=NC(=NC(=C2)C3(CC3)[S@](=N)(=O)C)C4=C5C=CNC5=NC=C4 [AZD6738] (first compound max 10 µM, 7x7, partner max 10 µM)"
  assay result: 0.795
- molecule: "C[C@@H]1COCCN1c1cc(C2([S@](C)(=N)=O)CC2)nc(-c2ccnc3[nH]ccc23)n1 [AZD6738] + C1CC(C1)(C(=O)[O-])C(=O)[O-].N.N.[Pt+2] [Carboplatin] (first compound max 10 µM, 7x7, partner max 10 µM)"
  assay result: 0.723

###

- System: KOPN-8 (B-Lymphoblastic Leukemia);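 note: after 72 h of two-drug dosing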
- assay info: Bliss excess, mean over the matrix (fraction); higher = more synergy
# maps each entry to its Bliss excess

- compound: "CN(C)CCCOc1ccc(-c2ccc3ncc4c(c3c2)n(C2CCOCC2)c(=O)n4C)cn1 [AZD0156] + O=C(c1cc(Cc2n[nH]c(=O)c3ccccc23)ccc1F)N1CCN(C(=O)C2CC2)CC1 [Olaparib] (first compound max 3 µM, partner max 3 µM)"
  tgt: "KOPN-8 (B-Lymphoblastic Leukemia)"
  Bliss excess: 0.31
- compound: "CCc1c2c(nc3ccc(O)cc13)-c1cc3c(c(=O)n1C2)COC(=O)[C@]3(O)CC [SN-38] + O=C(c1cc(Cc2n[nH]c(=O)c3ccccc23)ccc1F)N1CCN(C(=O)C2CC2)CC1 [Olaparib] (first compound max 0.3 µM, 7x7, partner max 10 µM)"
  tgt: "KOPN-8 (B-Lymphoblastic Leukemia)"
  Bliss excess: 0.0271
- compound: "Cn1cnc2c(F)c(Nc3ccc(Br)cc3Cl)c(C(=O)NOCCO)cc21 [Selumetinib] + CCN(CCO)CCCOc1ccc2c(Nc3cc(CC(=O)Nc4cccc(F)c4)[nH]n3)ncnc2c1 [AZD2811] (first compound max 10 µM, 7x7, partner max 1 µM)"
  tgt: "KOPN-8 (B-Lymphoblastic Leukemia)"
  Bliss excess: 0.0253
- compound: "Cn1cnc2c(F)c(Nc3ccc(Br)cc3Cl)c(C(=O)NOCCO)cc21 [Selumetinib] + C[C@@H]1COCCN1C2=NC(=NC(=C2)C3(CC3)[S@](=N)(=O)C)C4=C5C=CNC5=NC=C4 [AZD6738] (first compound max 10 µM, 7x7, partner max 10 µM)"
  tgt: "KOPN-8 (B-Lymphoblastic Leukemia)"
  Bliss excess: -0.154
- compound: "COc1nnc2ccc(N3CCC(c4ccc(OCCN5CCN(C)C(=O)[C@H]5C)cc4)CC3)nn12 [AZD5153] + C=CCn1c(=O)c2cnc(Nc3ccc(N4CCN(C)CC4)cc3)nc2n1-c1cccc(C(C)(C)O)n1 [AZD1775] (first compound max 1 µM, partner max 1 µM)"
  tgt: "KOPN-8 (B-Lymphoblastic Leukemia)"
  Bliss excess: -0.0267
- compound: "COc1cc2c(cc1OCCCCCOc1cc3c(cc1OC)C(=O)N1C=C(C)C[C@H]1C=N3)N=C[C@@H]1CC(C)=CN1C2=O [SG3199] + O=C(c1cc(Cc2n[nH]c(=O)c3ccccc23)ccc1F)N1CCN(C(=O)C2CC2)CC1 [Olaparib] (first compound max 0.001 µM, 7x7, partner max 10 µM)"
  tgt: "KOPN-8 (B-Lymphoblastic Leukemia)"
  Bliss excess: -0.0265
- compound: "CC1(C)CCC(CN2CCN(c3ccc(C(=O)NS(=O)(=O)c4ccc(NCC5CCOCC5)c([N+](=O)[O-])c4)c(Oc4cnc5[nH]ccc5c4)c3)CC2)=C(c2ccc(Cl)cc2)C1 [Venetoclax] + CN(C)CCCOc1ccc(-c2ccc3ncc4c(c3c2)n(C2CCOCC2)c(=O)n4C)cn1 [AZD0156] (first compound max 1 µM, 7x7, partner max 1 µM)"
  tgt: "KOPN-8 (B-Lymphoblastic Leukemia)"
  Bliss excess: -0.0498
- compound: "CN(CCO)CC[C@H](CSc1ccccc1)Nc1ccc(S(=O)(=O)NC(=O)c2ccc(N3CCC([C@@H](O)c4ccccc4-c4ccc(Cl)cc4)CC3)cc2)cc1S(=O)(=O)C(F)(F)F [AZD4320] + CCN(CCO)CCCOc1ccc2c(Nc3cc(CC(=O)Nc4cccc(F)c4)[nH]n3)ncnc2c1 [AZD2811] (first compound max 1 µM, 7x7, partner max 1 µM)"
  tgt: "KOPN-8 (B-Lymphoblastic Leukemia)"
  Bliss excess: -0.0249
- compound: "COc1cccc(OCCCN)c1-c1cc(Nc2cnc(C#N)cn2)n[nH]1 [Prexasertib] + C[C@@H]1COCCN1C2=NC(=NC(=C2)C3(CC3)[S@](=N)(=O)C)C4=C5C=CNC5=NC=C4 [AZD6738] (first compound max 1 µM, 7x7, partner max 10 µM)"
  tgt: "KOPN-8 (B-Lymphoblastic Leukemia)"
  Bliss excess: -0.0539
- compound: "COc1cccc(OCCCN)c1-c1cc(Nc2cnc(C#N)cn2)n[nH]1 [Prexasertib] + Cc1cc2ncnn2cc1Nc1ncc2c(n1)n(C1CCOCC1)c(=O)n2C [AZD7648] (first compound max 1 µM, 7x7, partner max 10 µM)"
  tgt: "KOPN-8 (B-Lymphoblastic Leukemia)"
  Bliss excess: 0.0298
- compound: "NC1(C(=O)N[C@@H](CCO)c2ccc(Cl)cc2)CCN(c2ncnc3[nH]ccc23)CC1 [Capivasertib] + CC(C)n1c(=O)n(C)c2cnc3cc(F)c(-c4ccc(OCCCN5CCCCC5)nc4)cc3c21 [AZD1390] (first compound max 10 µM, 7x7, partner max 0.3 µM)"
  tgt: "KOPN-8 (B-Lymphoblastic Leukemia)"
  Bliss excess: -0.0611
- compound: "COc1cc2ncnc(Nc3ccc(F)c(Cl)c3)c2cc1OCCCN1CCOCC1 [Gefitinib] + CC(C)n1c(=O)n(C)c2cnc3cc(F)c(-c4ccc(OCCCN5CCCCC5)nc4)cc3c21 [AZD1390] (first compound max 10 µM, 7x7, partner max 0.3 µM)"
  tgt: "KOPN-8 (B-Lymphoblastic Leukemia)"
  Bliss excess: -0.0725
- compound: "COc1cccc(OCCCN)c1-c1cc(Nc2cnc(C#N)cn2)n[nH]1 [Prexasertib] + CN(C)CCCOc1ccc(-c2ccc3ncc4c(c3c2)n(C2CCOCC2)c(=O)n4C)cn1 [AZD0156] (first compound max 1 µM, 7x7, partner max 1 µM)"
  tgt: "KOPN-8 (B-Lymphoblastic Leukemia)"
  Bliss excess: 0.0171
- compound: "COc1cccc(OCCCN)c1-c1cc(Nc2cnc(C#N)cn2)n[nH]1 [Prexasertib] + C=CCn1c(=O)c2cnc(Nc3ccc(N4CCN(C)CC4)cc3)nc2n1-c1cccc(C(C)(C)O)n1 [AZD1775] (first compound max 1 µM, partner max 1 µM)"
  tgt: "KOPN-8 (B-Lymphoblastic Leukemia)"
  Bliss excess: 0.0438
